This document collects GI50 values reported for HCT-15.
Express your answer in µM, writing the number without its unit.

{"Compound": "C/C(=C\\Cc1cc(O)ccc1O)CCc1c(C)cc(O)c(C=O)c1C [PANICEIN B3]", "Value unit": "µM", "GI50": 27.4}
{"Compound": "C[C@]12CC[C@H]3[C@@H](CCC4=CC(=O)CC[C@@]43C)[C@@H]1CC[C@@H]2C(=O)Nc1ccc([N+](=O)[O-])c(C(F)(F)F)c1", "Value unit": "µM", "GI50": 12}
{"Compound": "CSc1ccc(/C=C/C(=O)c2nc3ccccc3[nH]2)cc1", "Value unit": "µM", "GI50": 11.8}
{"Compound": "COc1ccc(C2CC(c3c(O)ccc4ccccc34)=NN2)cc1OC (stereo unspecified)", "Value unit": "µM", "GI50": 4.45}
{"Compound": "COc1ccc(NC(=S)c2ccc(CN3CCCCC3)s2)cc1", "Value unit": "µM", "GI50": 12.8}

Observed GI50 on HCT-15, entry O=c1[nH]c(=O)n(C2COC(CO)C2O)cc1F (stereo unspecified) , equals 16.4

====

Listing of recorded GI50 by entry.
Tested on: RPMI-8226
Procedure details: NCI tumour cell line growth inhibition, 48 h
The source made the active and inactive calls. Cut-off read from the data, not from the text of the source: active = GI50 up to about 1.1 µM and inactive = higher.

Recorded GI50, per entry:
{"Compound": "O=C(O)c1ccccc1/C=C1\\Cc2ccccc2C1=O", "Endpoint value": "71.4 µM (inactive)"}
{"Compound": "O=C1C=C(Br)c2c(Br)sc(Br)c21", "Endpoint value": "2.99 µM (inactive)"}

GI50 for COc1ccc(NC(=O)CSc2nnc(-c3ccc(/N=C\c4ccc(Cl)cc4)cc3)o2)cc1 is 9.06 µM (inactive)

GI50 for CCCCCCCCCCCC(=O)OCC1OC(n2cc(F)c(=O)[nH]c2=O)C(NC(=O)OCc2ccccc2)C(OC(=O)CCCCCCCCCCC)C1O (stereo not given) is > 100 µM (inactive)

GI50 for S=C1N=C(Cl)/C(=C\c2ccccc2)N1 is > 100 µM (inactive)

GI50 for CC1(C)OC2C(=O)C=C(COCc3ccccc3)C2O1 (stereo not given) is 24.8 µM (inactive)

GI50 for CN(C)Cc1cc(C(=O)/C=C/c2ccc(O)cc2)cc(CN(C)C)c1O is 17.9 µM (inactive)

GI50 for O[C@@]12Cc3c([nH]c4ccccc34)[C@@H]3Oc4c(-c5ccccc5)ccc5c4[C@@]31CCN(CC1CC1)[C@@H]2C5 is 3.65 µM (inactive)

GI50 for Nc1ccn([C@H]2CO[C@@H](CO)[C@@H]2O)c(=O)n1 is > 100 µM (inactive)

GI50 for COc1ccc(-c2ccc(C(=O)C=P(c3ccccc3)(c3ccccc3)c3ccccc3)cc2)cc1 is 2.12 µM (inactive)

====

Test system: MOLT-4
Procedure details: NCI tumour cell line growth inhibition, 48 h
Active and inactive are the calls of the source. No stated cut-off is given here; in the data, active = GI50 up to about 1.1 µM and inactive = higher.
API: response.call in active, inactive

Please review the entries below; each comes with its answer.
{"Compound": "Cc1cc(C)c(C)c(-n2[nH]c(=O)n(C)c2=O)c1C", "System under test": "MOLT-4", "Assigned category": "inactive"}
{"Compound": "O=C(c1cccs1)N(C(=S)OCCOc1ccccc1)c1ccccc1", "System under test": "MOLT-4", "Assigned category": "inactive"}
{"Compound": "Cc1ccc(S(=O)(=O)n2c3c(c4ccccc42)CCN2C(=O)C(S(=O)(=O)c4ccccc4)=CCC32)cc1 (stereo not given)", "System under test": "MOLT-4", "Assigned category": "active"}
{"Compound": "N#CC(=C1C=CC(=NO)C=C1)c1ccc(Cl)cc1", "System under test": "MOLT-4", "Assigned category": "inactive"}
{"Compound": "C[C@@H]1OC2(O)[C@H]3CCCN3S(=O)(=O)CCN2C1=O (stereo not given in full)", "System under test": "MOLT-4", "Assigned category": "inactive"}
{"Compound": "CC1(C)CN=C(Nc2ccc(Cl)cc2)S1", "System under test": "MOLT-4", "Assigned category": "inactive"}

Qu. What did this assay record as the result for O=C(c1ccccc1)n1c2ccc(Br)cc2c2nc3ccccc3nc21 ?
Ans. inactive

Qu. What did this assay record as the result for Cn1c(=O)oc2cc(C(=O)CSC(=S)N3CCCCCC3)ccc21 ?
Ans. inactive

Qu. What did this assay record as the result for COC(=O)C(CNC(=O)/C=C/c1ccc(OC(C)=O)c(OC(C)=O)c1)NC(=O)/C=C/c1ccc(OC(C)=O)c(OC(C)=O)c1 (stereo not given) ?
Ans. inactive

Qu. What did this assay record as the result for O=C1C=C(Br)c2c(Br)sc(Br)c21 ?
Ans. inactive

====

Test system: RPMI-8226
Procedure details: NCI tumour cell line growth inhibition, 48 h
Activity calls are given as the source filed them. Rule as the data show it: active = GI50 up to about 1.1 µM and inactive = higher.
Listing of recorded GI50 by entry.

GI50 for CN1C/C(=C\c2cccs2)C(O)/C(=C/c2cccs2)C1 (stereo not given) is 20.2 µM (inactive)

====

Tested on: HCT-15
Flag rule - GI50 less than 20 µM flags t; the remaining entries get f.

Please review the entries below; each comes with its answer.
{"Compound": "COC(=O)n1c(=O)n(-c2ccccc2)c(=O)n1C(=O)Nc1ccccc1", "Assigned category": "f"}
{"Compound": "CN(C)/C(=N\\C#N)NCc1ccccc1", "Assigned category": "f"}
{"Compound": "CCCCCCCCCCCCCCCC(=O)Nc1ccn(C2CCC(COP(=O)(O)OCC3OC(n4cc(F)c(=O)[nH]c4=O)CC3OC(C)=O)O2)c(=O)n1 (stereo not given)", "Assigned category": "f"}
{"Compound": "Cc1nn(C2OC(CO)C(O)C(F)C2O)c(=O)[nH]c1=O (stereo not given)", "Assigned category": "f"}
{"Compound": "CCOC(=O)c1[nH]c2cccc3c2c1CC(Br)C3=O (stereo not given)", "Assigned category": "t"}

Qu. Would you kindly verify if GI50 of CCOC(=O)/C(=C/c1cc(OC)ccc1OC)CC(=O)O is strictly less than 20 µM?
Ans. f

Qu. Would you kindly verify if GI50 of CC(C)(C)OC(=O)N1CC(COS(C)(=O)=O)c2ccc(O)cc21 (stereo not given) is strictly less than 20 µM?
Ans. t

Qu. Would you kindly verify if GI50 of CC(=O)/C(=C\c1cccc([N+](=O)[O-])c1)C(=O)Nc1ccccc1C is strictly less than 20 µM?
Ans. f

Qu. Would you kindly verify if GI50 of CC(=O)[C@]1(C)[C@H](C)O[C@](C)(CO)[C@H]1O[Si](C)(C)c1ccccc1 is strictly less than 20 µM?
Ans. f

Qu. Would you kindly verify if GI50 of CSc1nc(Cl)c2c(n1)Sc1ncnn1C2O (stereo not given) is strictly less than 20 µM?
Ans. t

====

Tested on: CCRF-CEM
Procedure details: NCI tumour cell line growth inhibition, 48 h
Active and inactive are the calls of the source. No stated cut-off is given here; in the data, active = GI50 up to about 1.1 µM and inactive = higher.
Endpoint label: GI50

{"Compound": "O=C1C(=Cc2cccc(O)c2)N=C(c2ccccc2)N1n1c(-c2ccccc2)nc2ccccc2c1=O", "GI50": "24.3 µM (inactive)"}
{"Compound": "CCCCNC(=S)N/C=C1\\C(=O)Nc2ccccc2C1=O", "GI50": "> 10 µM (inactive)"}
{"Compound": "C[n+]1c(-c2ccc(/C=N/Nc3n[nH]c(=S)n3N/N=C/c3ccc(-c4cn5ccccc5[n+]4C)cc3)cc2)cn2ccccc21", "GI50": "> 100 µM (inactive)"}
{"Compound": "Cc1c(Cl)ccc2c1NC(=O)C2(O)CC(=O)c1cccc2ccccc12 (stereo not given)", "GI50": "40.3 µM (inactive)"}

Observed GI50 on CCRF-CEM, entry CCOC(=O)c1nnsc1NC(=O)NCCCCCCn1c(=O)n(CCCCCCNC(=O)Nc2snnc2C(=O)OCC)c(=O)n(CCCCCCNC(=O)Nc2snnc2C(=O)OCC)c1=O , equals 38.5 µM (inactive)

Observed GI50 on CCRF-CEM, entry CCn1c2c(c3c(C(=O)OC)c(O)ccc31)C(=O)c1ccccc1C2=O , equals 15 µM (inactive)

====

Tested on: OVCAR-5
Procedure details: NCI tumour cell line growth inhibition, 48 h
Active and inactive are the calls of the source. No stated cut-off is given here; in the data, active = GI50 up to about 1.1 µM and inactive = higher.
Listing of recorded GI50 by entry.

GI50 for CC1CCC(C(C)C2C(O)CC3C4CC=C5CC(O)CCC5(C)C4CCC32C)NC1 (configuration not stated) is 89.7 µM (inactive)

====

Tested on: OVCAR-3
Procedure details: NCI tumour cell line growth inhibition, 48 h
Activity calls are given as the source filed them. Rule as the data show it: active = GI50 up to about 1.1 µM and inactive = higher.
API: response.call in active, inactive

Please review the entries below; each comes with its answer.
{"Molecule": "CC(NCCN(C)C)C1CCC2C3CCc4cc(O)ccc4C3CCC12C (stereo unspecified)", "Assigned category": "inactive"}
{"Molecule": "C/C(=N\\Nc1nc2ccccc2[nH]1)c1cnccn1", "Assigned category": "active"}
{"Molecule": "Nc1ccn([C@H]2CO[C@@H](CO)[C@@H]2O)c(=O)n1", "Assigned category": "inactive"}

Qu. What did this assay record as the result for OC1(c2ccc(Cl)cc2)c2ccccc2C2=Nc3ccccc3CN21 (stereo unspecified) ?
Ans. inactive

Qu. What did this assay record as the result for Cc1csc2nc3[nH]ncc3c(=O)n12 ?
Ans. inactive

Qu. What did this assay record as the result for COc1cc(C2C(Cl)C(=O)N2n2cnc3ccccc3c2=O)ccc1O (stereo unspecified) ?
Ans. inactive

Where these numbers come from: ChEMBL document CHEMBL1201862
